The measurements presented in this section are drawn from ChEMBL document CHEMBL1201862.

Test system: SF-268
PROTOCOL_NOTES: NCI tumour cell line growth inhibition, 48 h
The source made the active and inactive calls. Rule as the data show it: active = GI50 up to about 1.1 µM and inactive = higher.
Outcome codes: Y for active, N for inactive

- COMPOUND: "[O-][n+]1onc2c1-c1nonc1CC2"
  CLASS_NAME: "N"
- COMPOUND: "CC(=O)OCC1OC(SC2=NC(=O)/C(=C/c3ccccc3)S2)C(OC(C)=O)C(OC(C)=O)C1OC(C)=O (stereo not drawn)"
  CLASS_NAME: "N"
- COMPOUND: "CCOC(=O)CCC(NC(=O)c1ccc(Oc2nc3c(N)cc(C(F)(F)F)cc3nc2-c2ccccc2)cc1)C(=O)OCC (stereo not drawn)"
  CLASS_NAME: "N"
- COMPOUND: "CN[C@@H]1C[C@H]2O[C@@](C)([C@@H]1OC)n1c3ccccc3c3c4c(c5c6ccccc6n2c5c31)C(=O)N[C@@H]4O"
  CLASS_NAME: "Y"
- COMPOUND: "Cn1cnc(C(N)=[Se])c1N"
  CLASS_NAME: "N"
- COMPOUND: "COc1ccc(C2=CC(c3ccc4c(c3)OCO4)c3c(c4ccccc4oc3=O)O2)cc1OC (stereo not drawn)"
  CLASS_NAME: "N"
- COMPOUND: "O=C1C2=C(SCCS2)C(=O)c2c(Sc3ccc(Cl)cc3)c(Sc3ccc(Cl)cc3)c(Sc3ccc(Cl)cc3)c(Sc3ccc(Cl)cc3)c21"
  CLASS_NAME: "N"
- COMPOUND: "FC(F)(F)P1C2C=CC(CC2)C1(F)F (stereo not drawn)"
  CLASS_NAME: "N"
- COMPOUND: "O=C(NCc1cccc2ccccc12)N/N=C\\c1ccc(Cl)cc1"
  CLASS_NAME: "N"
- COMPOUND: "CC(=O)c1ccc2c(c1)oc(=O)n2CCN1CCCCC1"
  CLASS_NAME: "N"
- COMPOUND: "COc1ccc2c3c1OC1C(OC)(OC)CC4(C=C2)CN(C)CCC314 (stereo not drawn)"
  CLASS_NAME: "N"
- COMPOUND: "O=C(O)CC1CC=C[C@H]2c3cc4c(cc3C(=O)NC12)OCO4 (stereo partly drawn)"
  CLASS_NAME: "N"
- COMPOUND: "CNc1ccc([N+](=O)[O-])c2c(NCCCN(C)C)ccnc12"
  CLASS_NAME: "N"
- COMPOUND: "Cn1cc2ccccc2c1-c1nc(F)nc(Oc2ccc3c(c2)CC[C@@H]2C3CC[C@@]3(C)C2CC[C@@H]3O)n1 (stereo partly drawn)"
  CLASS_NAME: "N"
- COMPOUND: "Cc1c2cccc-2c2cc(O)c3ccccc3c2n1-c1ccc(N(C)C)cc1"
  CLASS_NAME: "N"
- COMPOUND: "CN1NC(c2ccccc2)=C(C#N)C(=O)CC1c1ccccc1Cl (stereo not drawn)"
  CLASS_NAME: "N"
- COMPOUND: "CCOC(=O)[C@]12C(=C(c3ccccc3)O[C@H]3C=CCC[C@H]31)C(=O)C(=O)N2c1ccccc1"
  CLASS_NAME: "N"
- COMPOUND: "CCOC(=O)c1sc2[n+](c1C)C(=O)/C(=C/c1ccccc1Cl)S2"
  CLASS_NAME: "N"
- COMPOUND: "CCN(CC)C(=S)N/N=C(/c1ccccc1)c1ccccn1"
  CLASS_NAME: "Y"
- COMPOUND: "O=c1oc2c3ccc4ccccc4c3n(Cc3nc4ccccc4[nH]3)c2c2ccccc12"
  CLASS_NAME: "N"
- COMPOUND: "Cc1[nH]c2ccccc2c1-c1cc(-c2cc(-c3c(C)[nH]c4ccccc34)nc(N)n2)nc(N)n1"
  CLASS_NAME: "N"
- COMPOUND: "CN(C)CCNc1ccc2ncn3c4ccc(O)cc4c(=O)c1c23"
  CLASS_NAME: "Y"
- COMPOUND: "O=C(NCCNCCNCCNC(=O)c1cc(-c2ccccc2)nc2ccccc12)c1cc(-c2ccccc2)nc2ccccc12"
  CLASS_NAME: "N"
